target: Nuclear receptor subfamily 1 group I member 3 (Homo sapiens) (UniProt Q14994); assay: qHTS assay to identify small molecule antagonists of the constitutive androstane receptor (CAR) signaling pathway (AID 1224838); conditions: HepG2-CYP2B6-hCAR luciferase, CITCO-stimulated, 24 h; series mostly up to 92.4 µM;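 note: HepG2 cells stably expressing hCAR with CYP2B6 luciferase reporter stimulated by CITCO; nearly all actives have a fitted effect of over 40% in size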
Sequence (Q14994 whole entry, looked up): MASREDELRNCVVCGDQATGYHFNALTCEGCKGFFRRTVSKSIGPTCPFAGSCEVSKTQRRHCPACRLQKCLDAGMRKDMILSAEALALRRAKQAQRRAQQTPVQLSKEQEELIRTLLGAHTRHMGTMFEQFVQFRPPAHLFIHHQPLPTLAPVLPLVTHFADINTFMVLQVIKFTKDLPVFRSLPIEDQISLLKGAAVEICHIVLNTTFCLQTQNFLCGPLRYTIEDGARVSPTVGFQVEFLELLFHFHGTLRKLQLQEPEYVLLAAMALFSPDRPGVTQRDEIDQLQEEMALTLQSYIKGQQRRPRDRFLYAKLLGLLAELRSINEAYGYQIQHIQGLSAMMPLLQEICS
Records with an inconclusive call do not appear. Activity calls are given as the source filed them. Calls come from the whole dose curve; as a rule, active = well fitted inhibition curve with a large enough effect in the repeat runs; inconclusive = weak or mixed curves, or effect the other way; inactive = no such curve, though single readings can be large or run the other way.
Valid outcomes are listed here; reply with one: 1 (yes) = active, 0 (no) = inactive

Illustrative cases are given below, each with its answer.
molecule: CC(O)(CS(=O)(=O)c1ccc(F)cc1)C(=O)Nc1ccc(C#N)c(C(F)(F)F)c1 (stereo not drawn)
measuredTarget: Nuclear receptor subfamily 1 group I member 3 (Homo sapiens) (UniProt Q14994)
classification: 0 (no)

molecule: COC(=O)C(C)N(C(=O)Cc1ccccc1)c1c(C)cccc1C (stereo not drawn)
measuredTarget: Nuclear receptor subfamily 1 group I member 3 (Homo sapiens) (UniProt Q14994)
classification: 0 (no)

molecule: NS(=O)(=O)C(F)(F)C(F)(F)C(F)(F)C(F)(F)C(F)(F)C(F)(F)C(F)(F)C(F)(F)F
measuredTarget: Nuclear receptor subfamily 1 group I member 3 (Homo sapiens) (UniProt Q14994)
classification: 0 (no)

molecule: [CH3][Sn]([CH3])([Cl])[Cl]
measuredTarget: Nuclear receptor subfamily 1 group I member 3 (Homo sapiens) (UniProt Q14994)
classification: 0 (no)

molecule: CCCCCC[N+](=O)[O-]
measuredTarget: Nuclear receptor subfamily 1 group I member 3 (Homo sapiens) (UniProt Q14994)
classification: 0 (no)

Request: Could you check what this test reported for C/C(=C\c1ccccc1)[N+](=O)[O-] ?
Result: 1 (yes)

Request: Could you check what this test reported for COC(=O)c1cncn1C(C)c1ccccc1 (stereo not drawn) ?
Result: 0 (no)

Request: Could you check what this test reported for CN(N=O)c1ccc([N+](=O)[O-])cc1 ?
Result: 0 (no)

Request: Could you check what this test reported for CCCCCCCCOC(=O)c1ccc(C(=O)OCCCCCCCC)c(C(=O)OCCCCCCCC)c1 ?
Result: 0 (no)

Request: Could you check what this test reported for CC(=O)C(C)(C)C ?
Result: 0 (no)

Request: Could you check what this test reported for CC(C)(CCl)C(=O)Cl ?
Result: 0 (no)

Request: Could you check what this test reported for CCOP(=S)(OCC)Oc1cc(Cl)c(Br)cc1Cl ?
Result: 0 (no)

Request: Could you check what this test reported for CCCCC(O)(Cn1cncn1)c1ccc(Cl)cc1Cl (stereo not drawn) ?
Result: 0 (no)

Request: Could you check what this test reported for CCCC(Cn1cncn1)c1ccc(Cl)cc1Cl (stereo not drawn) ?
Result: 0 (no)

Request: Could you check what this test reported for C=CC(=O)OCC(C)O (stereo not drawn) ?
Result: 0 (no)

Request: Could you check what this test reported for COC(N)=O ?
Result: 0 (no)

Request: Could you check what this test reported for Clc1cccc2ccccc12 ?
Result: 0 (no)

Request: Could you check what this test reported for ClCc1ccccc1 ?
Result: 0 (no)

Request: Could you check what this test reported for CC(C)(C)C(O)C(Oc1ccc(Cl)cc1)n1cncn1 (stereo not drawn) ?
Result: 0 (no)

Request: Could you check what this test reported for CC(C)N(C(=O)COc1nnc(C(F)(F)F)s1)c1ccc(F)cc1 ?
Result: 0 (no)

Request: Could you check what this test reported for O=C(O)C(F)(F)C(F)(F)C(F)(F)C(F)(F)C(F)(F)C(F)(F)C(F)(F)C(F)(F)C(F)(F)F ?
Result: 0 (no)

* * *

test: qHTS assay to identify small molecule antagonists of the glucocorticoid receptor (GR) signaling pathway - cell viability counter screen (AID 720693); settings: GR-bla HeLa viability, CellTiter-Glo luminescence, 18 h, with 5 nM dexamethasone present; series mostly up to 58.5 µM; note: nearly all actives have a fitted effect of over 55% in size
Inconclusive results are not listed. The source made the active and inactive calls. Calls come from the whole dose curve; as a rule, active = well fitted cell-killing curve with a large enough effect in the repeat runs; inconclusive = weak or mixed curves, or effect the other way; inactive = no such curve, though single readings can be large or run the other way.
Valid outcomes are listed here; reply with one: active, inactive

Illustrative cases are given below, each with its answer.
compound: O=C(NC(=O)c1c(F)cccc1F)Nc1ccc(OC(F)(F)C(F)OC(F)(F)F)c(Cl)c1 (stereo not drawn)
classification: inactive
--
compound: COC(=O)C(C)N(C(=O)Cc1ccccc1)c1c(C)cccc1C (stereo not drawn)
classification: inactive
--
compound: ClCc1ccccc1
classification: inactive
--
compound: CC(C)(Cl)[N+](=O)[O-]
classification: inactive
--
compound: CC(C)(C)c1cc([N+](=O)[O-])cc([N+](=O)[O-])c1O
classification: active

Request: Could you check what this test reported for C=CC(=O)OCC(C)O (stereo not drawn) ?
Result: inactive

Request: Could you check what this test reported for CCOC(=O)[C@]1(c2ccccc2)Oc2ccccc2[C@@H]1N ?
Result: inactive

* * *

assay: qHTS assay for identifying genotoxic compounds that show differential cytotoxicity against isogenic chicken DT40 cell lines with known DNA damage response pathways - Rad54/Ku70 mutant cell line (AID 743015); settings: DT40 Rad54/Ku70 mutant viability, CellTiter-Glo, 40 h; series mostly up to 66.8 µM; note: nearly all actives have a fitted effect of over 60% in size
Records with an inconclusive call do not appear. Active and inactive are the calls of the source. The call rests on the fitted dose curve; in most records, active means well fitted cell-killing curve with a large enough effect in the repeat runs; inconclusive means weak or mixed curves; inactive means no such curve, though single readings can be large or run the other way.
Valid outcomes are listed here; reply with one: Yes for active, No for inactive

compound: C=CC(=O)OC(C)(C)C
classification: No
//
compound: CCOC(=O)COc1cc(-c2nn(C)c(OC(F)F)c2Cl)c(F)cc1Cl
classification: Yes
//
compound: CCOS(C)(=O)=O
classification: No

Request: Could you check what this test reported for ClCc1ccccc1 ?
Result: No

Request: Could you check what this test reported for N#CCc1ccccc1 ?
Result: No

Request: Could you check what this test reported for CCOP(=O)(OCC)SCCSCC ?
Result: No

Request: Could you check what this test reported for Oc1ccc(Cl)c(Cl)c1Cl ?
Result: No

* * *

Task for the reader: assign each of the following molecules its reported activity change, positive = activation.
assay: qHTS assay to identify small molecule agonists of the estrogen related receptor (ERR) signaling pathway from Tox21 library (AID 1224849); conditions: ERR reporter cell line, ONE-Glo luciferase, 18 h; at 92.4 µM (top of the series) unless noted; note: % is set by controls: 0 for no effect and ±100 for the full control effect; nearly all actives have a fitted effect of over 15% in size
Calls of active or inactive are those of the source. Calls follow the shape of the full dose curve.

Can you give me activity change, positive = activation for all of these, one by one?
1. [O-][Cl+]O
2. CCOP(=S)(Oc1ccc([N+](=O)[O-])cc1)c1ccccc1 (stereo unspecified)
3. CCCN(CCCl)c1c([N+](=O)[O-])cc(C(F)(F)F)cc1[N+](=O)[O-]
4. CO[C@@H]1[C@H](OC(=O)NC(=O)CCl)CC[C@]2(CO2)[C@H]1[C@@]1(C)O[C@@H]1CC=C(C)C

Result:
["8.47% (inactive)", "24.4% (active)", "-4.52% (inactive)", "-4.67% [at 19 µM] (inactive)"]

Can you give me activity change, positive = activation for all of these, one by one?
1. S=C=NCc1ccccc1
2. COC(C)(C)CCC[C@H](C)C/C=C/C(C)=C/C(=O)OC(C)C

Result:
1: -18.1% (inactive); 2: -23.3% (inactive)

* * *

Assay: qHTS assay to test for compound auto fluorescence at 590 nm (red) in HEK293 cell free culture (AID 720683); note: % is set by controls: 0 for no effect and ±100 for the full control effect
Conditions: cell-free medium autofluorescence, Ex540/Em590 red; series mostly up to 91.3 µM
Source text: U.S. Tox21 Program National Center for Advancing Translational Sciences [NCATS] NIH Chemical Genomics Center [NCGC] U.S. Environmental Protection Agency [EPA] National Institutes of Environmental Health Sciences [NIEHS] National Toxicology Program [NTP] U.S. Food and Drug Administration [FDA] Tox21 Assay Overview: Compound auto fluorescence often interferes with screening of the compound library against various biological targets and signaling pathways. […] This assay includes the red fluorescence data. […]
Activity calls are given as the source filed them. Calls follow the shape of the dose curve; as a rule, active = well fitted curve in the direction sought with a large enough effect in the repeat runs; inconclusive = weak or mixed curves; inactive = flat fitted curve, though single readings scatter.
quantityName: fluorescence, % of fluorescent control

compound: COC(=O)C(Cl)C(=O)OC
fluorescence, % of fluorescent control: inactive
//
compound: O=C(CBr)OCc1ccccc1
fluorescence, % of fluorescent control: inactive
//
compound: CC(C)(C)C(O)C(Oc1ccc(Cl)cc1)n1cncn1 (configuration not stated)
fluorescence, % of fluorescent control: inactive
//
compound: CCCCCCCCCCOC(=O)c1ccccc1C(=O)OCCCCCCCCCC
fluorescence, % of fluorescent control: inactive
//
compound: CC(C)N(CCC(C(N)=O)(c1ccccc1)c1ccccn1)C(C)C (configuration not stated)
fluorescence, % of fluorescent control: inactive

Can you give me fluorescence, % of fluorescent control for all of these, one by one?
1. CO/C=C(/C(=O)OC)c1ccccc1COc1cccc(C(F)(F)F)n1
2. CN1[C@@H]2CC[C@H]1CC(OC(=O)c1cc(Cl)cc(Cl)c1)C2 (some centres not stated)
3. O=C(NC(=O)c1c(F)cccc1F)Nc1ccc(OC(F)(F)C(F)OC(F)(F)F)c(Cl)c1 (configuration not stated)
4. O=C(N[C@H](c1ccccc1)[C@@H]1CN2CCC1CC2)c1c(Cl)ccc(C(F)(F)F)c1Cl

Result:
inactive
inactive
inactive
inactive

Can you give me fluorescence, % of fluorescent control for all of these, one by one?
1. CCOP(=S)(OCC)Oc1cc(Cl)c(Br)cc1Cl
2. Cl/C=C\C[N+]12CN3CN(CN(C3)C1)C2
3. Clc1cccc2ccccc12

Result:
inactive
inactive
inactive
